Tested on: EKVX NSCLC
Assay: NCI-60 one-dose screen, 48 h (100 = growth as untreated, 0 = no growth, -100 = all killed)
Conditions: 10 µM unless noted
About 83,000 compounds went through this panel and 20% of them were active in at least one assay; those are over-represented in the sample as a whole. Activity calls are given as the source filed them. The calls were made as follows: active = growth percent below 10; inactive = the rest.
# growth per entry

compound	measured on	growth
O=C(Nc1ncc(Cc2cc(Cl)ccc2Cl)s1)c1cccs1	EKVX NSCLC	64% (inactive)
CCCCNC(=O)Oc1ccc(/C(=C(\C)c2ccccc2)c2ccc(OCCN3CCCCC3)cc2)cc1	EKVX NSCLC	76.2% (inactive)
CCCCCN1C=C/C(=C\C(=O)N(C)c2ccc(OC(F)(F)F)cc2)c2ccccc21	EKVX NSCLC	87.2% (inactive)
O=[N+]([O-])CC(c1ccccc1)c1c[nH]c2ccccc12 (stereo not given)	EKVX NSCLC	67% (inactive)
NC(=S)N1N=C(c2ccccc2)CC1c1cn(-c2ccccc2)nc1-c1ccc(OCc2ccccc2)cc1 (stereo not given)	EKVX NSCLC	78.3% (inactive)
O=C(CCN1CCCC1)Nc1ccc2c(NCCCCc3ccccc3)c3ccccc3nc2c1	EKVX NSCLC	38.3% (inactive)
CCN(CC)c1ccc(/C=N/NC(=O)CSc2nc3ccccc3c(=O)n2Cc2ccc(S(N)(=O)=O)cc2)c(O)c1	EKVX NSCLC	35.1% (inactive)
Brc1ccc(Nc2csc(-c3ccccn3)n2)cc1	EKVX NSCLC	85.4% (inactive)
C#CCNC(=O)[C@]1(C)CC[C@]2(C)CC[C@@H]3C(=CC[C@H]4[C@@]3(C)CC[C@H]3C(C)(C)C(=O)CC[C@]43C)[C@@H]2C1	EKVX NSCLC	100% (inactive)
CC(C)(C)c1cc(/C=N/NC(=O)c2ccccc2NC(=O)c2cccs2)c(O)c(C(C)(C)C)c1	EKVX NSCLC	35% (inactive)
